Ref: patent US7659277B2

Test system: HIV-1
Test: HIV maturation (budding) in virus-like particle assay, HIV-1 p24 antigen ELISA
Assay type: cell-based
Conditions: Human immunodeficiency virus 1, read-out: Budding (3 μM)
measured-parameter: activity at 3 µM

(Q) // lookup activity at 3 µM | system=HIV-1 | key= Cc1ccc(/N=C/c2cc(Br)cc(Br)c2O)c(C)c1 [Compound 54]
(A) 54%

(Q) Please provide the recorded activity at 3 µM for CCCOC(=O)c1ccc(/N=C/c2c(O)ccc3ccccc23)cc1 [Compound 69] , tested on HIV-1.
(A) 41%

(Q) Form field: activity at 3 µM recorded for O=C(O)c1ccc(-c2ccc(/C=c3\sc4nc5ccccc5n4c3=O)o2)cc1 [Compound 28] with HIV-1 (enter value)
(A) 54%

(Q) API: value(readout= activity at 3 µM, system= HIV-1, query= O=C(O)COc1ccc2c(c1)oc(=O)c1ccccc12 [Compound 85] )
(A) 59%

(Q) Lab note: need activity at 3 µM for Cc1cc(OC(=O)Cn2c(=O)sc3ccccc32)ccc1Cl [Compound 103] on HIV-1, anyone have it?
(A) 69%

(Q) Hi! What's the reported activity at 3 µM for C=CCN1C(=O)NC(=O)/C(=C\c2ccccc2)C1=O [Compound 2] on HIV-1?
(A) 66%

(Q) Checklist item: activity at 3 µM tested on HIV-1, entry Cc1c(C(=O)/C=C/c2ccccc2)c2cc(O)ccc2n1C [Compound 75] , value?
(A) 39%

(Q) Give HIV-1 activity at 3 µM for CN(C)c1ccc(/C=C2\C(=O)N(c3ccc([N+](=O)[O-])cc3)N=C2N2CCOCC2)cc1 [Compound 42]
(A) 51%

(Q) # query: activity at 3 µM | item CN1C(=O)/C(=C\c2ccc(-c3cccc([N+](=O)[O-])c3)o2)SC1=S [Compound 115] | system: HIV-1
(A) 48%
